From: paper PMC7853165

- targetEntity: UniProt Q9BYF1
- protocolDetails: SPR
- Format: binding
quantityMeasured: pKd
Scale: pKd equals -log10([C]), with [C] in mol/L.

Sample CC(C)C[C@H](N[C@@H](Cc1cncn1Cc1cc(Cl)cc(Cl)c1)C(=O)O)C(=O)O ; pKd observed: 4.18

###

- targetEntity: angiotensin-converting enzyme 2 (ACE2) (Homo sapiens, UniProt Q9BYF1)
- Sequence (Q9BYF1 18-805): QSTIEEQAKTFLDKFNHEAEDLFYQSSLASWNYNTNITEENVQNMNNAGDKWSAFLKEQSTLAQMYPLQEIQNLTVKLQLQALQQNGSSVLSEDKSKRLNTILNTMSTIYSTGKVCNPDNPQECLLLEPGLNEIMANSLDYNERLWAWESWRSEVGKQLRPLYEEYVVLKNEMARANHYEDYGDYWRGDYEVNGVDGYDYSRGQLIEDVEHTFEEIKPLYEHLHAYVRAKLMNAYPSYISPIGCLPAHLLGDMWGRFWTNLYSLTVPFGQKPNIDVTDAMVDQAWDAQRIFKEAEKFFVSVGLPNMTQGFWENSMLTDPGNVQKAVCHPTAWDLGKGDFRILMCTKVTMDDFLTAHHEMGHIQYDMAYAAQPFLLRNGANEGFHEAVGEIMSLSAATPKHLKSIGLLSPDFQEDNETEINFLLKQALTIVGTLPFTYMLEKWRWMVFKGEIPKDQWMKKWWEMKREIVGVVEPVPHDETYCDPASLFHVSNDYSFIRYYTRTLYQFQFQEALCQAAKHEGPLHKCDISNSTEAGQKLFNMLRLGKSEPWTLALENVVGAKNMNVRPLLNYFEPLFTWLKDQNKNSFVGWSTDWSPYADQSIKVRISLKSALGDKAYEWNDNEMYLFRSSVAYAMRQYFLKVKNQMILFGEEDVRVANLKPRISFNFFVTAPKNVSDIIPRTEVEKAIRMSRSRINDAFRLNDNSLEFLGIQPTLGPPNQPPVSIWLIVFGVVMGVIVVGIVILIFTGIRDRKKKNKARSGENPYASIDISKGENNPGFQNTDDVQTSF
- protocolDetails: SPR
- Type: binding
quantityMeasured: Kd
Give the value; after it, write the unit.

Sample CC1=CC(=O)C(C(C)C)=CC1=O ; Kd observed: 32.1 µM
